# Target: human dopamine D2 (L) receptors (long isoform) (Homo sapiens)
# Construct: expressed in transfected cells
# Sequence (P14416 whole entry, canonical isoform): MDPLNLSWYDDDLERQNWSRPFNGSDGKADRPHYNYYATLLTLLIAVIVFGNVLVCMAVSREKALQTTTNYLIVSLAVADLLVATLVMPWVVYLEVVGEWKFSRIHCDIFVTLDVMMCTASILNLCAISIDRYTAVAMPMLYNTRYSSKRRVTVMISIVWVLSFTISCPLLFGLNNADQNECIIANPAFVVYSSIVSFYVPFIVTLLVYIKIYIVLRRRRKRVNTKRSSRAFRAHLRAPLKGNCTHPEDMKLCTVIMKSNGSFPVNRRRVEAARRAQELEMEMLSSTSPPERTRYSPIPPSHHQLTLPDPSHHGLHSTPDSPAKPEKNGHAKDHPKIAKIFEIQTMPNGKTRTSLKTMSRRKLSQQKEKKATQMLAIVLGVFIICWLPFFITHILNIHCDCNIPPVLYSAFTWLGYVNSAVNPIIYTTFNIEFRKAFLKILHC
# Protocol text: Receptor binding study, dopamine D2(L) receptor ([125I]-iodospiperone displacement)
# Recorded conditions: selectivity ratio D2(L) versus D3 binding
Threshold check on Ki (D2)/Ki (D3): strictly below 50 is class 1; on or above 50 is class 0.

In: Just wondering, is Ki (D2)/Ki (D3) of `Cn1c(SCCCN2CCc3ccc(C(=O)c4cccc(F)c4)cc3C2)nnc1-c1cnccn1` below 50?
Out: class 1

In: Just wondering, is Ki (D2)/Ki (D3) of `Cn1c(SCCCN2CCc3ccc(C(=O)c4ccccc4)cc3C2)nnc1-c1ccco1` below 50?
Out: class 1

In: Just wondering, is Ki (D2)/Ki (D3) of `Cn1c(SCCCN2CCc3ccc(C(=O)c4ccccc4)cc3C2)nnc1-c1ccncc1` below 50?
Out: class 0

In: Just wondering, is Ki (D2)/Ki (D3) of `CCC(=O)c1ccc2c(c1)CN(CCCSc1nnc(-c3cc4ccccc4s3)n1C)CC2` below 50?
Out: class 0

In: Just wondering, is Ki (D2)/Ki (D3) of `CC(=O)c1ccc2c(c1)CN(CCCSc1nnc(-c3cccn3C)n1C)CC2` below 50?
Out: class 0

In: Just wondering, is Ki (D2)/Ki (D3) of `Cn1c(SCCCN2CCc3ccc(C(=O)c4cccc(F)c4)cc3C2)nnc1-c1cccnc1` below 50?
Out: class 1

In: Just wondering, is Ki (D2)/Ki (D3) of `Cn1c(SCCCN2CCc3ccc(C(=O)c4ccccc4)cc3C2)nnc1-c1ccccc1` below 50?
Out: class 0

In: Just wondering, is Ki (D2)/Ki (D3) of `Cn1c(SCCCN2CCc3ccc(C(=O)c4ccccc4)cc3C2)nnc1-c1ccsc1` below 50?
Out: class 1

In: Just wondering, is Ki (D2)/Ki (D3) of `CCC(=O)c1ccc2c(c1)CN(CCCSc1nnc(-c3ccccc3)n1C)CC2` below 50?
Out: class 0

In: Just wondering, is Ki (D2)/Ki (D3) of `CCC(=O)c1ccc2c(c1)CN(CCCSc1nnc(-c3ccccc3)n1C)C2.Cl` below 50?
Out: class 0

In: Just wondering, is Ki (D2)/Ki (D3) of `Cn1cccc1-c1nnc(SCCCN2CCc3ccc(C(=O)c4cccc(F)c4)cc3C2)n1C` below 50?
Out: class 1
